target: Monoglyceride lipase (Homo sapiens); test: Inhibition of human recombinant MAGL using 2-arachidonoylglycerol substrate assessed as arachidonic acid at 10 uM by HPLC analysis
Active and inactive are the calls of the source. No cut-off for these calls is given here.
metric: inhibition

# annotated cases, reported inhibition shown
structure_smiles_string	experimental_system	inhibition
O=C(Oc1ccc([N+](=O)[O-])cc1[N+](=O)[O-])N1CCC(=C2c3ccc(Cl)cc3CCc3cccnc32)CC1	Monoglyceride lipase (Homo sapiens)	inactive
O=C(NC1CCCCC1)N1CCC(=C2c3ccc(Cl)cc3CCc3cccnc32)CC1	Monoglyceride lipase (Homo sapiens)	inactive
CN(C(=O)N1CCC(=C2c3ccc(Cl)cc3CCc3cccnc32)CC1)C1CCCCC1	Monoglyceride lipase (Homo sapiens)	inactive
O=C(Oc1ccc([N+](=O)[O-])cc1)N1CCC(=C2c3ccc(Cl)cc3CCc3cccnc32)CC1	Monoglyceride lipase (Homo sapiens)	27%
O=C(N1CCC(=C2c3ccc(Cl)cc3CCc3cccnc32)CC1)n1ccnc1	Monoglyceride lipase (Homo sapiens)	inactive
CN(C(=O)N1CCC(=C2c3ccc(Cl)cc3CCc3cccnc32)CC1)c1ccccc1	Monoglyceride lipase (Homo sapiens)	inactive
CCOC(=O)N1CCC(=C2c3ccc(Cl)cc3CCc3cccnc32)CC1	Monoglyceride lipase (Homo sapiens)	inactive

Which inhibition value is on record for O=[N+]([O-])c1ccc(SC(=S)N2CCC(=C3c4ccc(Cl)cc4CCc4cccnc43)CC2)c([N+](=O)[O-])c1 ?
14%

---

biological target: UniProt:O00519; assay: Inhibition of human FAAH using [ethanolamine 1-3H] substrate assessed as radioactivity at 10 uM by liquid scintillation counting analysis
metric: inhibition

Need inhibition of CN(C(=O)N1CCC(=C2c3ccc(Cl)cc3CCc3cccnc32)CC1)c1ccccc1 , thanks.
11%

Now the same for O=C(NC1CCCCC1)N1CCC(=C2c3ccc(Cl)cc3CCc3cccnc32)CC1
9%

How about this compound: O=C(ON1C(=O)CCC1=O)N1CCC(=C2c3ccc(Cl)cc3CCc3cccnc32)CC1
12%

For O=C(Oc1ccc([N+](=O)[O-])cc1[N+](=O)[O-])N1CCC(=C2c3ccc(Cl)cc3CCc3cccnc32)CC1 then?
14%

---

biological target: Fatty-acid amide hydrolase 1 (Homo sapiens) (UniProt O00519); experiment: Inhibition of human FAAH using [ethanolamine 1-3H] substrate assessed as radioactivity at 10 uM by liquid scintillation counting analysis
Sequence (O00519 whole entry): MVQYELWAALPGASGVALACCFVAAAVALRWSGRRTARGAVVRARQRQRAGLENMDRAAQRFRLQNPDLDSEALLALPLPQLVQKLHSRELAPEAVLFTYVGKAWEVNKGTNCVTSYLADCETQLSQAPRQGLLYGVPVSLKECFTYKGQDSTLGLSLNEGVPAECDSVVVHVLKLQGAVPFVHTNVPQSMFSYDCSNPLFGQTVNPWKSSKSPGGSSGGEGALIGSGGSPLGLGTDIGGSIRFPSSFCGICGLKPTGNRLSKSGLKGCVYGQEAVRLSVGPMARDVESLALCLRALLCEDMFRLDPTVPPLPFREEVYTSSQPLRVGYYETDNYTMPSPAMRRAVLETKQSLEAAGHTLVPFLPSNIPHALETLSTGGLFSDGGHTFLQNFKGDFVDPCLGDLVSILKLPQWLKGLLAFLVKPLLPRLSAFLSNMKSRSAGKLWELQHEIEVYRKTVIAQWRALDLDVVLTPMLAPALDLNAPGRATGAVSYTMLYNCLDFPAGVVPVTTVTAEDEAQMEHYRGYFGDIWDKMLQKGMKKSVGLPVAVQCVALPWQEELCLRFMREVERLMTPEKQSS
metric: inhibition

Example cases with answers are listed next.
structure_smiles_string	metric	experimental_result
O=C(N1CCC(=C2c3ccc(Cl)cc3CCc3cccnc32)CC1)n1nnc2ncccc21	inhibition	30%
O=[N+]([O-])c1ccc(SC(=S)N2CCC(=C3c4ccc(Cl)cc4CCc4cccnc43)CC2)c([N+](=O)[O-])c1	inhibition	12%
O=C(N1CCC(=C2c3ccc(Cl)cc3CCc3cccnc32)CC1)n1nnc2ccccc21	inhibition	22%
O=C(OC(C(F)(F)F)C(F)(F)F)N1CCC(=C2c3ccc(Cl)cc3CCc3cccnc32)CC1	inhibition	15%
O=C(Oc1ccc([N+](=O)[O-])cc1)N1CCC(=C2c3ccc(Cl)cc3CCc3cccnc32)CC1	inhibition	6%
O=C(N1CCC(=C2c3ccc(Cl)cc3CCc3cccnc32)CC1)n1ccnc1	inhibition	7%

Turning now to a further compound:
Please report the recorded inhibition for CCOC(=O)N1CCC(=C2c3ccc(Cl)cc3CCc3cccnc32)CC1 .
11%

---

molecular target: Monoglyceride lipase (Homo sapiens, UniProt Q99685); experiment: Reversible inhibition of human recombinant MAGL using 2-arachidonoylglycerol substrate assessed as arachidonic acid after 90 mins by HPLC analysis
metric: pIC50
// returns pIC50 (minus log10 of molar concentration), number only

Which pIC50 is listed for O=C(N1CCC(=C2c3ccc(Cl)cc3CCc3cccnc32)CC1)n1cncn1 ?
6.51

---

target: Fatty-acid amide hydrolase 1 (Homo sapiens, UniProt O00519)
Sequence (O00519 whole entry): as above
metric: IC50 (µM)
Numbers only here, please. The scale is µM.

Need IC50 of O=C(N1CCC(=C2c3ccc(Cl)cc3CCc3cccnc32)CC1)n1cncn1 , thanks.
7.24

Queued: O=C(N1CCC(=C2c3ccccc3C=Cc3ccccc32)CC1)n1cncn1
6.91

---

Entries and their pIC50
molecular target: Monoacylglycerol lipase ABHD6 (Homo sapiens, UniProt Q9BV23); assay: Inhibition of human ABHD6 containing pCMV6-AC-hABHD6 transfected into HEK293 cells
Sequence (Q9BV23 whole entry): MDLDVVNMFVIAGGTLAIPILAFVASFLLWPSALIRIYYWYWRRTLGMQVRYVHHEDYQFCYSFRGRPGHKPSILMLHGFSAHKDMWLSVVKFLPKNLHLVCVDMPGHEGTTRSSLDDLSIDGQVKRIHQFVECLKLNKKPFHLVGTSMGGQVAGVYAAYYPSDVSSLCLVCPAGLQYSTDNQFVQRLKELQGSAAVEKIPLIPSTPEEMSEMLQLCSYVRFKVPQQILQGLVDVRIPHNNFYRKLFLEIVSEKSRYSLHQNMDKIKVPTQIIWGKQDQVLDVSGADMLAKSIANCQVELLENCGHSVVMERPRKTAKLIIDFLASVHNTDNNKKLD
A value of pIC50 is the negative decimal logarithm of a concentration given in moles per litre.

structure_smiles_string	experimental_system	metric	experimental_result
O=C(N1CCC(=C2c3ccc(Cl)cc3CCc3cccnc32)CC1)n1cncn1	Monoacylglycerol lipase ABHD6 (Homo sapiens, UniProt Q9BV23)	pIC50	5.75

Now take the following molecule into account.
Quick check: pIC50 of O=C(N1CCC(=C2c3ccccc3C=Cc3ccccc32)CC1)n1cncn1 ?
6.12

---

Target: Monoglyceride lipase (Homo sapiens)
Sequence (Q99685 whole entry): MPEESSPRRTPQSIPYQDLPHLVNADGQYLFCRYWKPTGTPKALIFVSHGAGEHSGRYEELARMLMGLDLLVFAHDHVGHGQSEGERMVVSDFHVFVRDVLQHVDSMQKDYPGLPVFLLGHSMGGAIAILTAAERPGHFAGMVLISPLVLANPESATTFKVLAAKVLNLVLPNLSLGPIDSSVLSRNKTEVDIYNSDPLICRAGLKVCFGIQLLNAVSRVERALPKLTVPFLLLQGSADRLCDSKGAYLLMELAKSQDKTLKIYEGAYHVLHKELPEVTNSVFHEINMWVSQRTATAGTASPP
Test: Reversible inhibition of human recombinant MAGL using 2-arachidonoylglycerol substrate assessed as arachidonic acid after 30 mins by HPLC analysis
metric: IC50
Note: a bare number is incomplete; add the unit.

Query the reported IC50 for Monoglyceride lipase (Homo sapiens); item: O=C(N1CCC(=C2c3ccc(Cl)cc3CCc3cccnc32)CC1)n1cncn1
224 nM
